# Test system: Escherichia coli TOP10;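 also: peptides expressed intracellularly from a pBAD plasmid library in pooled LB shake-flask culture, induced with 0.3% L-arabinose, DNA abundance read by NGS, three biological replicates, DESeq2 with apeglm shrinkage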
# run-description: shrunken log2 fold change of peptide-encoding DNA abundance (4.5 h post-induction vs induction); higher = less antimicrobial activity (less host growth inhibition)
# test-parameters: time post-induction: 4.5 h; library: site-saturation at positions 5, 18, 19, 20

| sequence | assay-target | shrunken log2 fold change |
| --- | --- | --- |
| RRIRNRPPRLPRPRPRPPECPRP | Escherichia coli TOP10 | 0.015 |
| RRIRMRPPRLPRPRPRPPMIPRP | Escherichia coli TOP10 | -0.0431 |
| RRIRNRPPRLPRPRPRPQQEPRP | Escherichia coli TOP10 | -0.124 |
| RRIRERPPRLPRPRPRPDKEPRP | Escherichia coli TOP10 | -0.0205 |
| RRIRSRPPRLPRPRPRPARPPRP | Escherichia coli TOP10 | 0.691 |
| RRIRDRPPRLPRPRPRPPKGPRP | Escherichia coli TOP10 | 0.644 |
| RRIRGRPPRLPRPRPRPRTAPRP | Escherichia coli TOP10 | 1.12 |
| RRIRFRPPRLPRPRPRPDVMPRP | Escherichia coli TOP10 | -0.0908 |
| RRIRIRPPRLPRPRPRPWPSPRP | Escherichia coli TOP10 | 0.193 |
| RRIRARPPRLPRPRPRPQNCPRP | Escherichia coli TOP10 | -0.19 |
| RRIRHRPPRLPRPRPRPQWPPRP | Escherichia coli TOP10 | 0.112 |
| RRIRFRPPRLPRPRPRPSVQPRP | Escherichia coli TOP10 | -0.241 |
| RRIRHRPPRLPRPRPRPPISPRP | Escherichia coli TOP10 | -0.378 |
| RRIRPRPPRLPRPRPRPCVTPRP | Escherichia coli TOP10 | 0.15 |
| RRIRTRPPRLPRPRPRPSQYPRP | Escherichia coli TOP10 | -0.142 |
| RRIRARPPRLPRPRPRPKTHPRP | Escherichia coli TOP10 | 0.227 |
| RRIRHRPPRLPRPRPRPIMKPRP | Escherichia coli TOP10 | -0.317 |
| RRIRNRPPRLPRPRPRPSPSPRP | Escherichia coli TOP10 | -0.0323 |
| RRIRWRPPRLPRPRPRPETCPRP | Escherichia coli TOP10 | 0.16 |
| RRIRPRPPRLPRPRPRPDAGPRP | Escherichia coli TOP10 | 0.442 |
| RRIRARPPRLPRPRPRPHPHPRP | Escherichia coli TOP10 | 0.322 |
| RRIRRRPPRLPRPRPRPYWQPRP | Escherichia coli TOP10 | -0.0961 |
| RRIRSRPPRLPRPRPRPRIFPRP | Escherichia coli TOP10 | 0.206 |
| RRIRYRPPRLPRPRPRPTKHPRP | Escherichia coli TOP10 | -0.896 |
| RRIRGRPPRLPRPRPRPQVMPRP | Escherichia coli TOP10 | 0.532 |
| RRIRMRPPRLPRPRPRPQQAPRP | Escherichia coli TOP10 | 0.0303 |
| RRIRLRPPRLPRPRPRPGTPPRP | Escherichia coli TOP10 | 0.0973 |
| RRIRERPPRLPRPRPRPHCEPRP | Escherichia coli TOP10 | -0.056 |
| RRIRNRPPRLPRPRPRPVMEPRP | Escherichia coli TOP10 | -0.173 |
| RRIRYRPPRLPRPRPRPHTNPRP | Escherichia coli TOP10 | -0.661 |
| RRIRYRPPRLPRPRPRPAEGPRP | Escherichia coli TOP10 | -0.169 |
| RRIRQRPPRLPRPRPRPLQHPRP | Escherichia coli TOP10 | 0.164 |
| RRIRGRPPRLPRPRPRPCDKPRP | Escherichia coli TOP10 | 0.297 |
| RRIRIRPPRLPRPRPRPANWPRP | Escherichia coli TOP10 | 0.236 |
| RRIRDRPPRLPRPRPRPMKSPRP | Escherichia coli TOP10 | 0.0815 |
| RRIRTRPPRLPRPRPRPEHWPRP | Escherichia coli TOP10 | -0.00863 |
| RRIRSRPPRLPRPRPRPPVYPRP | Escherichia coli TOP10 | 0.0599 |
| RRIRDRPPRLPRPRPRPSGIPRP | Escherichia coli TOP10 | -0.0212 |
| RRIRSRPPRLPRPRPRPPIGPRP | Escherichia coli TOP10 | 0.297 |
| RRIRCRPPRLPRPRPRPPPGPRP | Escherichia coli TOP10 | 1.47 |
| RRIRLRPPRLPRPRPRPIASPRP | Escherichia coli TOP10 | -0.0599 |
| RRIRARPPRLPRPRPRPPHDPRP | Escherichia coli TOP10 | 1.02 |
| RRIRARPPRLPRPRPRPNPVPRP | Escherichia coli TOP10 | 0.0917 |
| RRIRLRPPRLPRPRPRPRLLPRP | Escherichia coli TOP10 | 0.167 |
| RRIRLRPPRLPRPRPRPKFKPRP | Escherichia coli TOP10 | -0.147 |
| RRIRLRPPRLPRPRPRPQPKPRP | Escherichia coli TOP10 | 0.172 |
| RRIRSRPPRLPRPRPRPPEIPRP | Escherichia coli TOP10 | -0.19 |
| RRIRMRPPRLPRPRPRPTSFPRP | Escherichia coli TOP10 | 0.347 |
| RRIRTRPPRLPRPRPRPYVSPRP | Escherichia coli TOP10 | -0.244 |
| RRIRGRPPRLPRPRPRPKEDPRP | Escherichia coli TOP10 | 0.796 |
| RRIRARPPRLPRPRPRPSRPPRP | Escherichia coli TOP10 | 0.612 |
| RRIRQRPPRLPRPRPRPGLKPRP | Escherichia coli TOP10 | 0.0245 |
| RRIRKRPPRLPRPRPRPHFHPRP | Escherichia coli TOP10 | 0.0831 |
| RRIRHRPPRLPRPRPRPSYVPRP | Escherichia coli TOP10 | -1.15 |
| RRIRGRPPRLPRPRPRPMGGPRP | Escherichia coli TOP10 | 0.458 |
| RRIRERPPRLPRPRPRPFFHPRP | Escherichia coli TOP10 | -0.264 |
| RRIRTRPPRLPRPRPRPEMGPRP | Escherichia coli TOP10 | -0.0368 |
| RRIRNRPPRLPRPRPRPIHNPRP | Escherichia coli TOP10 | -0.976 |
| RRIRHRPPRLPRPRPRPRKHPRP | Escherichia coli TOP10 | -0.113 |
| RRIRVRPPRLPRPRPRPNSLPRP | Escherichia coli TOP10 | 0.0679 |
| RRIRKRPPRLPRPRPRPKSMPRP | Escherichia coli TOP10 | 0.375 |
| RRIRMRPPRLPRPRPRPIICPRP | Escherichia coli TOP10 | -0.00127 |
| RRIRSRPPRLPRPRPRPQHLPRP | Escherichia coli TOP10 | -0.372 |
